Test system: Hepatitis C virus NS3 helicase
method: HCV NS3 helicase inhibitors, primary screen, biochemical, fluorescence polarization, NIH Clinical Collection (AID 743270)
condition.info: NS3 helicase binding to Cy5-dT15 DNA, stronger effect = higher value, concentration not given here
experimental.endpoint: inhibition (%)
Give bare numbers, in %.

Guide cases for inhibition, answers given:
{"compound": "Cc1cccc(Nc2ccccc2C(=O)O)c1C", "experimental.endpoint": "inhibition", "endpoint.unit": "%", "numeric.result": -5}
{"compound": "O=C(O)CCCc1ccccc1", "experimental.endpoint": "inhibition", "endpoint.unit": "%", "numeric.result": -2.27}
{"compound": "CC1(C)O[C@@H]2C[C@H]3[C@@H]4CCC5=CC(=O)C=C[C@]5(C)[C@@]4(F)[C@@H](O)C[C@]3(C)[C@]2(C(=O)CO)O1", "experimental.endpoint": "inhibition", "endpoint.unit": "%", "numeric.result": -0.45}
{"compound": "NCc1ccc(S(N)(=O)=O)cc1", "experimental.endpoint": "inhibition", "endpoint.unit": "%", "numeric.result": -7.73}
{"compound": "CN(C)C(=O)Oc1ccc[n+](C)c1", "experimental.endpoint": "inhibition", "endpoint.unit": "%", "numeric.result": 0.45}

Hi there! I need inhibition for each item below, if you can.
1. NC(=O)N1c2ccccc2CC(=O)c2ccccc21
2. CC(C)C1CCC(C(=O)N[C@H](Cc2ccccc2)C(=O)O)CC1 (stereo partly drawn)

Response:
[-5.15, -0.4]

* * *

method: suppressors of polyQ aggregation in yeast, 75Q-TubU reporter (AID 1593)
condition.info: Yeast 75Q polyglutamine aggregation reporter
experimental.endpoint: score
Give bare numbers.

Guide cases for score, answers given:
{"molecule": "CCOC(=O)N1CCC(=C2c3ccc(Cl)cc3CCc3cccnc32)CC1", "score": 0.8}
{"molecule": "CCc1cccc2c3c([nH]c12)C(CC)(CC(=O)O)OCC3 (centres undefined)", "score": 1.08}
{"molecule": "O=C1C(CCS(=O)c2ccccc2)C(=O)N(c2ccccc2)N1c1ccccc1 (centres undefined)", "score": 0.1}

In the following, a different molecule is considered.
Prompt: Tell me its score given `CN(C)c1ccc(O)c2c1C[C@H]1C[C@H]3[C@H](N(C)C)C(=O)C(C(N)=O)=C(O)[C@@]3(O)C(=O)C1=C2O` as the entry.
Response: 0.98

* * *

method: activators of macrophage pro-inflammatory response, cell-based, murine, luminescence (AID 652131)
condition.info: murine macrophage pro-inflammatory reporter, stronger effect = higher value
Record Condition met whenever z-score is at 0.2 or higher; record Condition not met when lower.

{"molecule": "CCn1c(-c2nonc2N)nc2ccncc21", "category": "Condition not met"}
{"molecule": "OCc1ccc(-c2nc(-c3ccc4c(c3)OCO4)c(-c3ccccn3)[nH]2)cc1", "category": "Condition met"}
{"molecule": "c1cnn2ncc(-c3ccnc(Nc4ccc5c(c4)OCCO5)n3)c2c1", "category": "Condition not met"}
{"molecule": "COc1cc(N2CCN(C(C)C)CC2)ccc1Nc1nc(Nc2ccc(F)cc2C(=O)NC[C@@H](O)CO)c2cc[nH]c2n1", "category": "Condition not met"}
{"molecule": "CN1CCC(n2cnc(-c3ccc(F)cc3)c2-c2ccnc(Nc3ccccc3)n2)CC1", "category": "Condition met"}
{"molecule": "Cc1nc(-c2ccccc2)n2nc(NCCCN3CCOCC3)ncc12", "category": "Condition not met"}
{"molecule": "CC1(C)CC(n2cnc(-c3ccc(F)cc3)c2-c2ccnc(N)n2)CC(C)(C)N1", "category": "Condition met"}
{"molecule": "NS(=O)(=O)c1cccc(N=Cc2c(O)[nH]c3ccccc23)c1", "category": "Condition met"}
{"molecule": "CCc1cccc(NC(=O)Nc2ccc(Oc3ccc4nc(NC(=O)OC)[nH]c4c3)cc2)c1", "category": "Condition not met"}
{"molecule": "NC(=O)c1cc(-c2ccncc2)cc(-c2ccccc2)c1N", "category": "Condition not met"}

Prompt: Check the entry CC1=C(C(=O)Nc2ccc3[nH]ncc3c2)C(c2ccc(Cl)c(Cl)c2)CC(=O)N1 (stereo not drawn) : does z-score equal or exceed 0.2?
Response: Condition not met

Prompt: Check the entry `Cc1ccc(C(=O)NC2CCCCC2)cc1-c1ccc(C(=O)NCC2CC2)cc1` : does z-score equal or exceed 0.2?
Response: Condition not met

Prompt: Check the entry `O=C1NC(=O)C(c2ccccc2)=C1Nc1ccccc1` : does z-score equal or exceed 0.2?
Response: Condition not met

* * *

System: Hepatitis C virus NS3 helicase
method: HCV NS3 helicase inhibitors, primary screen, biochemical, fluorescence polarization, LOPAC1280 library (AID 687035)
condition.info: Purified HCV NS3 helicase, Cy5-dT15 ssDNA binding fluorescence polarization; stronger effect = higher value; concentration not given here
experimental.endpoint: inhibition (%)
One number for each entry, in %.

Guide cases for inhibition, answers given:
{"molecule": "O=c1n(CCCN2CCN(c3cccc(Cl)c3)CC2)nc2ccccn12", "measured.on": "Hepatitis C virus NS3 helicase", "inhibition / %": 0}
{"molecule": "COc1ccccc1N1CCN(CCCNc2cc(=O)n(C)c(=O)n2C)CC1", "measured.on": "Hepatitis C virus NS3 helicase", "inhibition / %": -4}
{"molecule": "Nc1nc(N)c2nc(-c3ccccc3)c(N)nc2n1", "measured.on": "Hepatitis C virus NS3 helicase", "inhibition / %": -2}

Hi there! I need inhibition for each item below, if you can.
1. CN(C)CCOC(C)(c1ccccc1)c1ccccn1 (stereo not given)
2. Nc1nc2c(ncn2COCCO)c(=O)[nH]1

Response:
-2
-2

* * *

method: stimulators of nuclear beta-catenin in C2C12, primary screen, imaging, WNT3A-conditioned medium, mouse C2C12, NPC library (AID 1117326); further: reference of the scale not given here
condition.info: stimulation, at 2 µM, stronger effect = higher value
experimental.endpoint: nuclear beta-catenin stimulation

Guide cases for nuclear beta-catenin stimulation, answers given:
{"compound": "CN(C)CCN1CCN(c2cccc(Cl)c2)C1=O", "nuclear beta-catenin stimulation": "0.1%"}
{"compound": "COC(=O)C1=C(C)NC(COC(N)=O)=C(C(=O)OC(C)C)C1c1cccc(Cl)c1Cl (stereo unspecified)", "nuclear beta-catenin stimulation": "0.7%"}
{"compound": "Cc1ncc([N+](=O)[O-])n1CC(C)O (stereo unspecified)", "nuclear beta-catenin stimulation": "1.6%"}

Hi there! I need nuclear beta-catenin stimulation for each item below, if you can.
1. Cc1cccc(C)c1NC(=O)CN1CCCCCC1
2. CC(C)CCCC(C)CCCC(C)CCCCC(C)CCCC(C)CCCC(C)C (stereo unspecified)
3. c1ccc(-c2nc[nH]c2-c2ccccc2)cc1
4. CC(C)C(=O)OCc1cccc(OC(=O)[C@@H]2N3C(=O)[C@@H](NC(=O)Cc4ccccc4)[C@H]3SC2(C)C)c1
5. O=C(Oc1ccccc1)c1ccccc1O
6. COC(=O)c1cccnc1
7. Cc1cccc(C)c1NC(=O)CN(CC(=O)O)CC(=O)O
8. C/C(=N/NC(=O)c1ccncc1)C(=O)O

Response:
0.1%
-0.8%
2.7%
-0.1%
-1%
1.1%
0.2%
-0.3%

Hi there! I need nuclear beta-catenin stimulation for each item below, if you can.
1. CN(C)CCOC(C)(c1ccccc1)c1ccccn1 (stereo unspecified)
2. CC(COc1ccccc1)NC(C)C(O)c1ccc(O)cc1 (stereo unspecified)
3. Cn1cc(C(=O)[C@@H]2CCc3nc[nH]c3C2)c2ccccc21
4. CC(C)CCOC(=O)c1ccc(N(C)C)cc1
5. C[N+](C)(CCOc1ccccc1)Cc1cccs1
6. OC(C#CCN1CCCC1)(c1ccccc1)c1ccccc1
7. CCN(CC)S(=O)(=O)c1ccc(C(=O)O)cc1

Response:
1. -0.9%
2. -1%
3. -0.1%
4. 0.7%
5. 1.1%
6. 0.1%
7. 0.7%

Hi there! I need nuclear beta-catenin stimulation for each item below, if you can.
1. C=CCOc1cc(Cl)ccc1C(=O)NCCN(CC)CC
2. CC1Cc2ccccc2N1NC(=O)c1ccc(Cl)c(S(N)(=O)=O)c1 (stereo unspecified)

Response:
["0.3%", "6%"]

Hi there! I need nuclear beta-catenin stimulation for each item below, if you can.
1. N[C@@H](C(=O)N[C@@H]1C(=O)N2C(C(=O)O)=C(Cl)CS[C@H]12)c1ccccc1
2. Cc1c(C)n(Cc2ccccc2)c2ccc(C(=O)OCCN(C)C)cc12
3. O=C(NN1CCCC1)NS(=O)(=O)c1ccc(Cl)cc1

Response:
1.1%
-0.2%
-0.1%

Hi there! I need nuclear beta-catenin stimulation for each item below, if you can.
1. O=C(Nc1ccc(Br)cc1)c1cc(Br)c(Br)s1
2. CCCCCCn1c(=O)c2c(ncn2C)n(C)c1=O
3. CO/N=C(/C(=O)N[C@@H]1C(=O)N2C(C(=O)[O-])=C(C[n+]3ccn4ncccc43)CS[C@H]12)c1nsc(N)n1

Response:
1. -0.1%
2. -2%
3. -1%

Hi there! I need nuclear beta-catenin stimulation for each item below, if you can.
1. O=C(Cn1ccnc1[N+](=O)[O-])NCc1ccccc1
2. CC(=O)Oc1ccc(C2(c3ccc(OC(C)=O)cc3)Oc3ccccc3NC2=O)cc1

Response:
1: 0.4%; 2: 9.3%

Hi there! I need nuclear beta-catenin stimulation for each item below, if you can.
1. COc1ccc(OC(=O)N(CC(=O)O)Cc2ccc(OCCc3nc(-c4ccccc4)oc3C)cc2)cc1
2. NC(CSCC(=O)O)C(=O)O (stereo unspecified)
3. COC(=O)/C=C\C(=O)OC
4. CCCNC(C)C(=O)Nc1ccccc1C (stereo unspecified)
5. NC(=O)COCCN1CCN(C(c2ccccc2)c2ccc(Cl)cc2)CC1 (stereo unspecified)
6. CC[N+]1(CC)CCC(=C(c2ccccc2)c2ccccc2)C1C (stereo unspecified)
7. Cc1ccccc1N=Nc1ccc(N=Nc2c(O)ccc3ccccc23)c(C)c1

Response:
1: -0.5%; 2: 1.5%; 3: 9%; 4: 0.2%; 5: 1.4%; 6: -2.2%; 7: 5.4%

Prompt: Tell me its nuclear beta-catenin stimulation given `COC(=O)c1nc(Cl)c(Cl)nc1N` as the entry.
Response: 84.9%

// provenance: PubChem BioAssay
